# TESTED SYSTEM: P-glycoprotein (Pgp) (Homo sapiens, UniProt P08183)
# Sequence (P08183 whole entry): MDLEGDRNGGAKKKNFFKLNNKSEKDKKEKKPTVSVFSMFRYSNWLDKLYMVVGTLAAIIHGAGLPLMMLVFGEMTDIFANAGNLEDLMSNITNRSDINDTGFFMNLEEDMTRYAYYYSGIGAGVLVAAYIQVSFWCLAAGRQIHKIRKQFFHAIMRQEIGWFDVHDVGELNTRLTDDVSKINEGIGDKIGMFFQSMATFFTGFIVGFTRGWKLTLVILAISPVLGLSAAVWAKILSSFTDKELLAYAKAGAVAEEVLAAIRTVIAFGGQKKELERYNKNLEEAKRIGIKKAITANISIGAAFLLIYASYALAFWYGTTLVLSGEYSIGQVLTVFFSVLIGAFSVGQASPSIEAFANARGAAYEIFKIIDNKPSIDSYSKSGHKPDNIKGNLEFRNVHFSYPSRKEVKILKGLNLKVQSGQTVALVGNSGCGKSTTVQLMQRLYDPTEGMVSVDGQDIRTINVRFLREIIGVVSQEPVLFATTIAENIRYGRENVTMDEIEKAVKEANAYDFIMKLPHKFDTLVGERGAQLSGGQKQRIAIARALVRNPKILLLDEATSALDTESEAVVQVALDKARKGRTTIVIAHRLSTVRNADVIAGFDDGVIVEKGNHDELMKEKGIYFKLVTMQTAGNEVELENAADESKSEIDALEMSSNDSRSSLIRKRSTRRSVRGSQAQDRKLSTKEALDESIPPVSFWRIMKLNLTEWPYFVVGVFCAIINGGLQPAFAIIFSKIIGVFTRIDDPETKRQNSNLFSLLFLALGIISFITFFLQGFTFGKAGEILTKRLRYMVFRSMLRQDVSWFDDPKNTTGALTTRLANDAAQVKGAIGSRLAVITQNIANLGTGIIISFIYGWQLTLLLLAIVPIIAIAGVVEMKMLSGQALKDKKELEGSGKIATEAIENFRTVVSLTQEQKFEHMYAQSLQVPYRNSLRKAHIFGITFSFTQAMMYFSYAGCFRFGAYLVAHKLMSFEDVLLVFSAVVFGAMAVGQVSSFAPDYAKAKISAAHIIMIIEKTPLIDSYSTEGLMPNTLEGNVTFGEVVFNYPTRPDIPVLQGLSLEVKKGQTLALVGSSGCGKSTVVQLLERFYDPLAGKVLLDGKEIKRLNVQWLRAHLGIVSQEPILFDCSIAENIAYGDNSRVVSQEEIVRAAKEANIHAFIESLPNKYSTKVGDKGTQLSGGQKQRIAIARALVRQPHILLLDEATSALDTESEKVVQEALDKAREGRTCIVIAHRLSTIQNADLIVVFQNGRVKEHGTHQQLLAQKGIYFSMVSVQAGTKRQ
# TEST PROTOCOL: Rhodamine 123 efflux inhibition assay in CCRFvcr1000 cells
# Format: cell-based
# ASSAY CONTEXT: read-out: IC50 for inhibition of Pgp-mediated rhodamine 123 efflux; CCRFvcr1000 cells; mean±SD, at least 3 independent experiments in duplicate
PROPERTY MEASURED: IC50 (nM)
Report the value in nM with no unit label.

Would you kindly share the measured IC50 for `COc1ccc(-c2ccc(CN3CCc4cc(OC)c(OC)cc4C3)cc2)cc1` ?
375
